Origin of measurements: patent US8003801B2

System: 1A9/A8, EpoA-resistant 1A9 cell line (β274 Thr→Ile)
Experiment: 72 hour growth-inhibition (cytotoxicity) assay, 1A9/A8 cells
Type: cell-based, human
Settings: IC50 of 1A9/A8 divided by IC50 of the parental cell line
I'd be grateful if you could share measured RRp (relative resistance), 1A9/A8 for these entries.
Quick one: just the number, no unit, thanks!

Query :: Recorded RRp (relative resistance), 1A9/A8 for `C/C(=C\c1nc2ccccc2s1)[C@@H]1C[C@@H]2O[C@]2(C)CCC[C@H](C)[C@H](O)[C@@H](C)C(=O)C(C)(C)[C@@H](O)CC(=O)O1` , please?
Result :: 3.7

Query :: Then this compound: `C/C(=C\c1ncnn1C)[C@@H]1C[C@@H]2O[C@]2(C)CCC[C@H](C)[C@H](O)[C@@H](C)C(=O)C(C)(C)[C@@H](O)CC(=O)O1`
Result :: 1.2

Query :: Then this compound: `C/C(=C\c1cn(C)cn1)[C@@H]1C[C@@H]2O[C@]2(C)CCC[C@H](C)[C@H](O)[C@@H](C)C(=O)C(C)(C)[C@@H](O)CC(=O)O1`
Result :: 0.8

Query :: Then this compound: `C/C(=C\c1ccn(C)n1)[C@@H]1C[C@@H]2O[C@]2(C)CCC[C@H](C)[C@H](O)[C@@H](C)C(=O)C(C)(C)[C@@H](O)CC(=O)O1`
Result :: 1.6

Query :: Then this compound: CC(=O)O[C@@]12CO[C@@H]1C[C@H](O)[C@@]1(C)C(=O)[C@H](O)C3=C(C)[C@@H](OC(=O)[C@H](O)[C@@H](NC(=O)OC(C)(C)C)c4ccccc4)C[C@@](O)([C@@H](OC(=O)c4ccccc4)[C@H]21)C3(C)C [Taxotere ™, reference compound]
Result :: 0.5

###

I'd be grateful if you could share measured RRp (relative resistance), A2780/AD10 for these entries.
Test system: A2780/AD10, drug-resistant clone of human ovarian carcinoma A2780 overexpressing P-glycoprotein
Assay: 72 hour growth-inhibition (cytotoxicity) assay, A2780/AD10 cells
Format: cell-based
Conditions: IC50 of A2780/AD10 divided by IC50 of the parental cell line
Quick one: just the number, no unit, thanks!

Query :: Recorded RRp (relative resistance), A2780/AD10 for `CC(=O)SCc1nc(/C=C(\C)[C@@H]2C[C@@H]3O[C@]3(C)CCC[C@H](C)[C@H](O)[C@@H](C)C(=O)C(C)(C)[C@@H](O)CC(=O)O2)cs1` , please?
Result :: 45.3

Query :: Then this compound: `COc1nc(/C=C(\C)[C@@H]2C[C@@H]3O[C@]3(C)CCC[C@H](C)[C@H](O)[C@@H](C)C(=O)C(C)(C)[C@@H](O)CC(=O)O2)nc2c1ncn2C`
Result :: 47.3

Query :: Then this compound: C/C(=C\c1csc(C)n1)[C@@H]1C[C@@H]2O[C@@H]2CCC[C@H](C)[C@H](O)[C@@H](C)C(=O)C(C)(C)[C@@H](O)CC(=O)O1 [EpoA, reference compound]
Result :: 25.7

Query :: Then this compound: `C/C(=C\c1c(I)ncn1C)[C@@H]1C[C@@H]2O[C@]2(C)CCC[C@H](C)[C@H](O)[C@@H](C)C(=O)C(C)(C)[C@@H](O)CC(=O)O1`
Result :: 5.9

Query :: Then this compound: C/C(=C\c1csc(C)n1)[C@@H]1C[C@@H]2O[C@]2(C)CCC[C@H](C)[C@H](O)[C@@H](C)C(=O)C(C)(C)[C@@H](O)CC(=O)O1 [EpoB, reference compound]
Result :: 15.7

Query :: Then this compound: `C/C(=C\c1nccn1C)[C@@H]1C[C@@H]2O[C@]2(C)CCC[C@H](C)[C@H](O)[C@@H](C)C(=O)C(C)(C)[C@@H](O)CC(=O)O1`
Result :: 1.4

Query :: Then this compound: `C/C(=C\c1ccn(-c2ccccc2)n1)[C@@H]1C[C@@H]2O[C@]2(C)CCC[C@H](C)[C@H](O)[C@@H](C)C(=O)C(C)(C)[C@@H](O)CC(=O)O1`
Result :: 107

Query :: Then this compound: `C/C(=C\c1ccn(C)n1)[C@@H]1C[C@@H]2O[C@]2(C)CCC[C@H](C)[C@H](O)[C@@H](C)C(=O)C(C)(C)[C@@H](O)CC(=O)O1`
Result :: 4.7

Query :: Then this compound: `CSc1nc(/C=C(\C)[C@@H]2C[C@@H]3O[C@]3(C)CCC[C@H](C)[C@H](O)[C@@H](C)C(=O)C(C)(C)[C@@H](O)CC(=O)O2)c(SC)n1C`
Result :: 2.6

Query :: Then this compound: `CSc1nc(/C=C(\C)[C@@H]2C[C@@H]3O[C@]3(C)CCC[C@H](C)[C@H](O)[C@@H](C)C(=O)C(C)(C)[C@@H](O)CC(=O)O2)nc2c1ncn2C`
Result :: 16.8

Query :: Then this compound: CC(=O)O[C@@]12CO[C@@H]1C[C@H](O)[C@@]1(C)C(=O)[C@H](O)C3=C(C)[C@@H](OC(=O)[C@H](O)[C@@H](NC(=O)OC(C)(C)C)c4ccccc4)C[C@@](O)([C@@H](OC(=O)c4ccccc4)[C@H]21)C3(C)C [Taxotere ™, reference compound]
Result :: 12.3

Query :: Then this compound: `C/C(=C\c1nc2ccccc2s1)[C@@H]1C[C@@H]2O[C@]2(C)CCC[C@H](C)[C@H](O)[C@@H](C)C(=O)C(C)(C)[C@@H](O)CC(=O)O1`
Result :: 7.4

Query :: Then this compound: `C/C(=C\c1nc(Cl)c2ncn(C)c2n1)[C@@H]1C[C@@H]2O[C@]2(C)CCC[C@H](C)[C@H](O)[C@@H](C)C(=O)C(C)(C)[C@@H](O)CC(=O)O1`
Result :: 12.5

Query :: Then this compound: `CSc1cc(/C=C(\C)[C@@H]2C[C@@H]3O[C@]3(C)CCC[C@H](C)[C@H](O)[C@@H](C)C(=O)C(C)(C)[C@@H](O)CC(=O)O2)nn1C`
Result :: 8.2

Query :: Then this compound: `CSCc1nc(/C=C(\C)[C@@H]2C[C@@H]3O[C@]3(C)CCC[C@H](C)[C@H](O)[C@@H](C)C(=O)C(C)(C)[C@@H](O)CC(=O)O2)cs1`
Result :: 15.2
